This section presents compounds with their documented IC50 values.
# Tested system: human JAK3 (a.a. 781-1124) (Homo sapiens, UniProt P52333)
# Construct: JAK3 (a.a. 781-1124); His tag (N); made in house; host or cells: insect cells (baculovirus)
# Sequence (P52333 781-1124): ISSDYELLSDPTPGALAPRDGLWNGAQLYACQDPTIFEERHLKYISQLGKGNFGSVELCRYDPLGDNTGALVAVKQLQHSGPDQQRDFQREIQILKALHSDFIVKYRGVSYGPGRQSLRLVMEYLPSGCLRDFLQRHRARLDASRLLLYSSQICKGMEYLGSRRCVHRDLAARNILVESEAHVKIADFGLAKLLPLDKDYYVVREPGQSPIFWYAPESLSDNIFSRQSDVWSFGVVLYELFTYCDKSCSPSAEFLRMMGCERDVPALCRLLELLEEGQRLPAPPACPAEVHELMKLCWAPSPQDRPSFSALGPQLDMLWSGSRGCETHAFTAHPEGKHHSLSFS
# Protocol: In vitro JAK kinase assay (HTRF, phosphorylation of a biotinylated peptide), JAK3
# Type: biochemical
# Test settings: method AA1 (3 μM ATP) or AA2 (1000 μM ATP), not stated per value
Structures can show the parent of a compound that is named as a salt.
// note: answer is a bare numeric in nM

// known answers, use as guide
| Compound | Tested system | Readout unit | IC50 |
| --- | --- | --- | --- |
| CC(C)S(=O)(=O)N1CCC(CC(=O)Nc2ccc3cc2CCc2cccc(c2)Nc2ncc(Cl)c(n2)N3)CC1 [Example A82, trifluoroacetate] | human JAK3 (a.a. 781-1124) (Homo sapiens, UniProt P52333) | nM | 17 |
| Cc1ccc2cc1Nc1ncc(Cl)c(n1)Nc1cccc(c1)CC2 [Example A7, trifluoroacetate] | human JAK3 (a.a. 781-1124) (Homo sapiens, UniProt P52333) | nM | 300 |

Kindly consider the entry below.
query: Give the measured IC50 of CS(=O)(=O)N1CCC(CC(=O)Nc2ccc3cc2CCc2cncc(c2)Nc2ncc(Cl)c(n2)N3)C1 (stereo not drawn) [Example A91, bis(trifluoroacetate)] .
result: 44

====

# Tested system: human JAK2 (a.a. 828-1132) (Homo sapiens)
# Construct: JAK2 (a.a. 828-1132); His tag (N); made in house; host or cells: insect cells (baculovirus)
# Protocol: In vitro JAK kinase assay (HTRF, phosphorylation of a biotinylated peptide), JAK2
# Assay type: biochemical
# Test settings: Table D1
pIC50: −log10 of the molar value. Counter-ions that a name gives are not always drawn.
Values of pIC50 greater than or equal to 7 map to true (1); values below map to false (0).

For orientation, consider the following solved cases.
| Compound | Cat |
| --- | --- |
| Cc1ccnc(N2CCN(C(=O)COc3ccc4cc3CCc3cncc(c3)Nc3ncc(Cl)c(n3)N4)CC2)c1 [Example D237, tris(trifluoroacetate)] | false (0) |
| Clc1cnc2nc1Nc1cccc(c1)COc1cccc(c1)N2 [Example D6, trifluoroacetate] | true (1) |
| Clc1cnc2nc1Nc1cccc(c1)OCCc1cc(Br)cc(c1)N2 [Example D22, trifluoroacetate] | true (1) |

query: Can N#Cc1ccccc1NC(=O)N1CC[C@@H](CC(=O)Nc2ccc3cc2CCc2cncc(c2)Nc2ncc(Cl)c(n2)N3)C1 [Example D116, bis(trifluoroacetate)] be said to have pIC50 at or above 7?
result: false (0)

====

# Tested system: human JAK2 (a.a. 828-1132) (Homo sapiens, UniProt O60674)
# Construct: JAK2 (a.a. 828-1132); His tag (N); made in house; host or cells: insect cells (baculovirus)
# Sequence (O60674 828-1132): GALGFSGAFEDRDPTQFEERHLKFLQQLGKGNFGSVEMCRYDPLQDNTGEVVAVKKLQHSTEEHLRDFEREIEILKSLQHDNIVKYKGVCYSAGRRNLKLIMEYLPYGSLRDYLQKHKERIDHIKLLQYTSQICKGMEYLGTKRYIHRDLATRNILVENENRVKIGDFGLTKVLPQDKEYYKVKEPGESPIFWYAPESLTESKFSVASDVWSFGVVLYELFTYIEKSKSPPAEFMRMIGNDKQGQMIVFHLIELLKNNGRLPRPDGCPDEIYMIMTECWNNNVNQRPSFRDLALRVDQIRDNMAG
# Protocol: In vitro JAK kinase assay (HTRF, phosphorylation of a biotinylated peptide), JAK2
# Format: biochemical
# Test settings: Table B1
Structures can show the parent of a compound that is named as a salt.
Assign labels as follows, please: Satisfied for IC50 below 10 nM; Not satisfied for IC50 equal to or exceeding 10 nM.

For orientation, consider the following solved cases.
| Compound | Tested system | Cat |
| --- | --- | --- |
| O=C(Nc1ccc2cc1CCc1cccc(c1)Nc1ncc(Cl)c(n1)N2)c1ccc(F)cc1 [Example B49, trifluoroacetate] | human JAK2 (a.a. 828-1132) (Homo sapiens, UniProt O60674) | Satisfied |
| N#Cc1ccc(C(=O)Nc2ccc3cc2CCc2cccc(c2)Nc2ncc(Cl)c(n2)N3)cc1 [Example B64, trifluoroacetate] | human JAK2 (a.a. 828-1132) (Homo sapiens, UniProt O60674) | Satisfied |
| O=C(Nc1ccc2cc1CCc1cncc(c1)Nc1ncc(Cl)c(n1)N2)N1CCN(c2cnccn2)CC1 [Example B294, (trifluoroacetate)] | human JAK2 (a.a. 828-1132) (Homo sapiens, UniProt O60674) | Not satisfied |
| O=C(Nc1cc2cc(c1)Nc1nc(ncc1Cl)Nc1cccc(c1)CC2)c1nc2ccccc2s1 [Example B204, trifluoroacetate] | human JAK2 (a.a. 828-1132) (Homo sapiens, UniProt O60674) | Not satisfied |
| CC(=O)N1CCN(C(=O)Nc2ccc3cc2CCc2cncc(c2)Nc2ncc(Cl)c(n2)N3)CC1 [Example B317, bis(trifluoroacetate)] | human JAK2 (a.a. 828-1132) (Homo sapiens, UniProt O60674) | Not satisfied |

query: # strict comparison: is reported IC50 < 10 nM? input = O=C(Nc1ccc2cc1CCc1cccc(c1)Nc1ncc(Cl)c(n1)N2)N1CCCC1 [Example B81, trifluoroacetate]
result: Not satisfied

query: Then what about the compound Cc1cncc(N2CCN(C(=O)Nc3ccc4cc3CCc3cncc(c3)Nc3ncc(Cl)c(n3)N4)CC2)n1 [Example B308, tris(trifluoroacetate)] ?
result: Not satisfied

query: Then what about the compound Cc1oncc1S(=O)(=O)N1CCC(CN(C)Cc2ccc3cc2CCc2cncc(c2)Nc2ncc(Cl)c(n2)N3)CC1 [Example B342, tris(trifluoroacetate)] ?
result: Not satisfied

query: Then what about the compound O=C(Nc1ccc2cc1CCc1cccc(c1)Nc1ncc(Cl)c(n1)N2)N[C@H]1CCN(C(=O)C2CC2)C1 [Example B228, trifluoroacetate] ?
result: Not satisfied

query: Then what about the compound CC(C)C(=O)Nc1ccc2cc1CCc1cccc(c1)Nc1ncc(Cl)c(n1)N2 [Example B55, trifluoroacetate] ?
result: Satisfied

query: Then what about the compound O=C(Nc1ccc2cc1CCc1cncc(c1)Nc1ncc(Cl)c(n1)N2)N1CCN(c2ccccc2)CC1 [Example B292, tris(trifluoroacetate)] ?
result: Not satisfied

query: Then what about the compound O=S(=O)(Nc1ccc2cc1CCc1cccc(c1)Nc1ncc(Cl)c(n1)N2)c1ccccc1Cl [Example B137, trifluoroacetate] ?
result: Satisfied

query: Then what about the compound CC(C)NC(=O)Nc1ccc2cc1CCc1cccc(c1)Nc1ncc(Cl)c(n1)N2 [Example B116, trifluoroacetate] ?
result: Satisfied

====

This section presents compounds with their documented pIC50 values.
# Tested system: human JAK3 (a.a. 781-1124) (Homo sapiens)
# Construct: JAK3 (a.a. 781-1124); His tag (N); made in house; host or cells: insect cells (baculovirus)
# Protocol: In vitro JAK kinase assay (HTRF, phosphorylation of a biotinylated peptide), JAK3
# Assay type: biochemical
# Test settings: Table B1
Counter-ions that a name gives are not always drawn.
When answering, recall that pIC50 equals minus log10 of the concentration in mol/L, and write that number alone.

// known answers, use as guide
| Compound | Measured result |
| --- | --- |
| Cc1cnc2nc1Nc1cccc(c1)CCc1cccc(c1)N2 [Example B2, trifluoroacetate] | 6.56 |
| Cc1cccc(Cl)c1NC(=O)Nc1ccc2cc1CCc1cccc(c1)Nc1ncc(Cl)c(n1)N2 [Example B122, trifluoroacetate] | 7.52 |
| N#Cc1ccc(C(=O)Nc2ccc3cc2CCc2cccc(c2)Nc2ncc(Cl)c(n2)N3)cc1 [Example B64, trifluoroacetate] | 8.00 |

query: What measured pIC50 is associated with N#Cc1ccccc1S(=O)(=O)Nc1ccc2cc1CCc1cccc(c1)Nc1ncc(Cl)c(n1)N2 [Example B155, trifluoroacetate] on human JAK3 (a.a. 781-1124) (Homo sapiens)?
result: 7.40

query: Then what about the compound CC(CO)NC(=O)Nc1ccc2cc1CCc1cccc(c1)Nc1ncc(Cl)c(n1)N2 (stereo not shown) [Example B242, trifluoroacetate] ?
result: 7.92

query: Then what about the compound N#Cc1ccc(NC(=O)Nc2cc3cc(c2)Nc2nc(ncc2Cl)Nc2cccc(c2)CC3)cc1 [Example B212, trifluoroacetate] ?
result: 6.51

query: Then what about the compound Cn1ccc(S(=O)(=O)NCCNC(=O)Nc2ccc3cc2CCc2cccc(c2)Nc2ncc(Cl)c(n2)N3)n1 [Example B332, trifluoroacetate] ?
result: 7.59

====

# Tested system: human JAK3 (a.a. 781-1124) (Homo sapiens)
# Construct: JAK3 (a.a. 781-1124); His tag (N); made in house; host or cells: insect cells (baculovirus)
# Protocol: In vitro JAK kinase assay (HTRF, phosphorylation of a biotinylated peptide), JAK3
# Type: biochemical
# Test settings: Table B1
Counter-ions that a name gives are not always drawn.
Metric: pIC50
When answering, recall that pIC50 equals minus log10 of the concentration in mol/L, and write that number alone.

| Compound | pIC50 |
| --- | --- |
| Cc1ccccc1S(=O)(=O)Nc1ccc2cc1CCc1cccc(c1)Nc1ncc(Cl)c(n1)N2 [Example B149, trifluoroacetate] | 8.62 |
| Cc1ccccc1NC(=O)Nc1ccc2cc1CCc1cccc(c1)Nc1ncc(Cl)c(n1)N2 [Example B91, trifluoroacetate] | 7.55 |
| Clc1cnc2nc1Nc1cc(cc(CN3CCN(Cc4cc(Br)cs4)CC3)c1)CCc1cccc(c1)N2 [Example B196, tris(trifluoroacetate)] | 7.32 |
| CC(C)S(=O)(=O)Nc1ccc2cc1CCc1cccc(c1)Nc1ncc(Cl)c(n1)N2 [Example B143, trifluoroacetate] | 6.98 |

query: Give the measured pIC50 of O=C(Nc1ccc2cc1CCc1cccc(c1)Nc1ncc(Cl)c(n1)N2)NC1CC1 [Example B240, trifluoroacetate] .
result: 8.00

query: Then what about the compound COc1ccc(CN2CCN(Cc3cc4cc(c3)Nc3nc(ncc3Cl)Nc3cccc(c3)CC4)CC2)cc1 [Example B197, tris(trifluoroacetate)] ?
result: 6.86

query: Then what about the compound N#Cc1cccc(NC(=O)Nc2ccc3cc2CCc2cccc(c2)Nc2ncc(Cl)c(n2)N3)c1 [Example B95, trifluoroacetate] ?
result: 7.17

query: Then what about the compound CCC(C)c1ccccc1NC(=O)Nc1ccc2cc1CCc1cccc(c1)Nc1ncc(Cl)c(n1)N2 (centres unmarked) [Example B126, trifluoroacetate] ?
result: 6.79

query: Then what about the compound O=C(Nc1ccc(Cl)cc1)c1cc2cc(c1)Nc1nc(ncc1Cl)Nc1cccc(c1)CC2 [Example B15, trifluoroacetate] ?
result: 6.44

query: Then what about the compound O=C(Nc1ccc2cc1CCc1cccc(c1)Nc1ncc(Cl)c(n1)N2)N[C@H]1CCNC1 [Example B167, bis(trifluoroacetate)] ?
result: 7.37
